Tested on: Vasopressin V2
TEST_DESCRIPTION: Vasopressin V2 Antagonist Activity in Conscious Hydrated Rats
Type: in vivo, rat
CONDITION_DESCRIPTION: 10 mg/kg orally, N = 2; AVP 0.4 μg/kg intraperitoneally
I would appreciate it if you labelled entries Yes when Urine Vol. (ml/4 hrs.) is 20 ml/4 hrs. or higher, otherwise No.

Below, 5 molecules whose answers are already recorded.
Check the entry Cc1ccc(F)cc1C(=O)Nc1ccc(C(=O)N2CCc3cn[nH]c3-c3sccc32)cc1 : does Urine Vol. (ml/4 hrs.) equal or exceed 20 ml/4 hrs.?
No

Check the entry O=C(Nc1ccc(C(=O)N2CCc3cn[nH]c3-c3ncccc32)c(Cl)c1)c1ccccc1-c1ccccc1 : does Urine Vol. (ml/4 hrs.) equal or exceed 20 ml/4 hrs.?
No

Check the entry O=C(Nc1ccc(C(=O)N2CCc3cn[nH]c3-c3ncccc32)cc1)c1ccccc1-c1ccccc1 : does Urine Vol. (ml/4 hrs.) equal or exceed 20 ml/4 hrs.?
No

Check the entry Cc1ccc(F)cc1C(=O)Nc1ccc(C(=O)N2CCc3c[nH]nc3-c3ncccc32)cc1 : does Urine Vol. (ml/4 hrs.) equal or exceed 20 ml/4 hrs.?
No

Check the entry Cc1ccccc1C(=O)Nc1ccc(C(=O)N2CCc3c[nH]nc3-c3sccc32)cc1 : does Urine Vol. (ml/4 hrs.) equal or exceed 20 ml/4 hrs.?
Yes

Next:
Check the entry O=C(Nc1ccc(C(=O)N2CCc3cn[nH]c3-c3sccc32)cc1)c1ccc(F)cc1Cl : does Urine Vol. (ml/4 hrs.) equal or exceed 20 ml/4 hrs.?
No
